# Tested on: PDE IV
# TEST_SUMMARY: Inhibition of PDE IV isolated from canine tracheal muscle (cAMP metabolism)
# Assay type: biochemical
# SETTINGS: canine trachealis PDE IV, 1 μM 3H-cAMP, 10 μM CI-930, 30° C., pH 7.8; reduction expressed relative to 10 μM rolipram
OBSERVATION_TYPE: IC50 (nM)
Numeric answer only, unit nM assumed.

[[record]]
compound = "COc1ccc(C2CC(=O)N(C(=O)NCCc3cccn3C)N2C)cc1OC1CCCC1 (stereo not shown) [Example 40]"
observation_type = "IC50"
numeric_readout = 190


Task: Give the value of IC50 reported for the following: COc1ccc(C2CC(=O)N(C/C=C/c3cncc(Br)c3)N2C)cc1OC1CCCC1 (stereo not shown) [Example 30]
Result: 50

Task: Give the value of IC50 reported for the following: COc1ccc(C2CC(=O)N(C(=O)NCc3cccs3)N2C)cc1OC1CCCC1 (stereo not shown) [Example 39]
Result: 150

Task: Give the value of IC50 reported for the following: CNC(=O)N1C(=O)CC(c2ccc(OC)c(OC3CCCC3)c2)N1C (stereo not shown) [Example 9]
Result: 460
